Below, each of the compounds is paired with its reported Relative tumor surface area value.
Tested on: A549 lung tumors
Type: in vivo, hairless mice
Settings: Day 15; 18 μmol of epothilone/kg of body weight i.v. (formulations: plus 100 μmol of Gd/kg); day 0 normalized to 1
Quick one: just the number, no unit, thanks!

{"columns": ["structureAsSmiles", "assayedSystem", "Relative tumor surface area"],
 "data": [
  ["C#CC[C@H]1C(=O)C(C)(C)[C@@H](O)CC(=O)O[C@H](/C(F)=C/c2csc(C)n2)C/C=C(/C)CCC[C@H](C)[C@@H]1O", "A549 lung tumors", 1.5]
]}

Prompt line: Which Relative tumor surface area reading was recorded for the compound C=CC[C@H]1C(=O)C(C)(C)[C@@H](O)CC(=O)O[C@H](/C(C)=C/c2csc(C)n2)C/C=C(/C)CCC[C@H](C)[C@@H]1O ?
Response line: 1.5

Prompt line: Follow-up entry: C=CC[C@H]1C(=O)C(C)(C)[C@@H](O)CC(=O)O[C@H](c2ccc3sc(C)nc3c2)C[C@@H]2O[C@]2(C)CCC[C@H](C)[C@@H]1O
Response line: 1.4

Prompt line: Follow-up entry: Cc1nc(/C=C(\Cl)[C@@H]2C[C@@H]3O[C@]3(C)CCC[C@H](C)[C@H](O)[C@@H](C)C(=O)C(C)(C)[C@@H](O)CC(=O)O2)cs1
Response line: 1.6

Prompt line: Follow-up entry: CC[C@H]1C(=O)C(C)(C)[C@@H](O)CC(=O)O[C@H](/C(F)=C/c2ccccn2)C/C=C(/C)CCC[C@H](C)[C@@H]1O
Response line: 1.5
